These measurements were taken from patent US20160022764A1.

- experimental-target: melanocortin-1 receptor (human, UniProt Q01726 1-317)
- Sequence (Q01726 whole entry): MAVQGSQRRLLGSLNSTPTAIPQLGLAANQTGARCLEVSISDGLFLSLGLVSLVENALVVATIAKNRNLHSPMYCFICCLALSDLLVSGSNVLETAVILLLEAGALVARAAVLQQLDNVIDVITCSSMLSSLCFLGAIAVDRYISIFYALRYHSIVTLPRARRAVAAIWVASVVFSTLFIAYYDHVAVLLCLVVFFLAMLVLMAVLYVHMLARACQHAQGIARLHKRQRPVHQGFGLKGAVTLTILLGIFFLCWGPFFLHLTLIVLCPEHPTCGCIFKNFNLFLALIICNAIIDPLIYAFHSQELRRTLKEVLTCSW
- procedure-text: cell-based or functional assay
Bridge positions count the residues as written; N and C are the ends. Square brackets hold non-standard residues; d marks the D form. dPhe(4-F) = N[C@H](Cc1ccc(F)cc1)C(=O)O
readout-name: cAMP Assay (EC-50) (nM)
State just the number; it will be interpreted in nM.

Query Ac-RC[dA]P[dPhe(4-F)]RWC-NH2 (disulfide 2-8; SMILES CC(=O)N[C@@H](CCCNC(=N)N)C(=O)N[C@H]1CSSC[C@@H](C(N)=O)NC(=O)[C@H](Cc2c[nH]c3ccccc23)NC(=O)[C@H](CCCNC(=N)N)NC(=O)[C@@H](Cc2ccc(F)cc2)NC(=O)[C@@H]2CCCN2C(=O)[C@@H](C)NC1=O) [Compound 14: Ac-Arg-cyclo[Cys-D-Ala-Pro-D-Phe(p-F)-Arg-Trp-Cys]-NH2] yields cAMP Assay (EC-50) of 169

Query Ac-RC[dA][His(1-Me)][dF]RWC-NH2 (disulfide 2-8) [Compound 6: Ac-Arg-cyclo[Cys-D-Ala-His(1-Me)-D-Phe-Arg-Trp-Cys]-NH2] yields cAMP Assay (EC-50) of 30.4
